Molecular target: T1, Antibody 178-10_His CA_W152C_L452R_D614G (27081) (SARS-CoV-2, UniProt P0DTC2 14-685)
T1 construct: domain: S1; also called CA variant S1; California variant S1
Experiment: Carterra SPR
Parameter: binding result

Below: 5 binders and their reported binding result.
7-6 (VHH, not shown: a dimerising Fc or GST) VHH: EVQLVESGGGLVQPGGSLRLSCAASGRIFYPMGWFRQAPGKEREFVAAVRWSSTGIYYTQYADSVKGRFTISADNSKNTAYLQMNSLKPEDTAVYYCAAALSEVWRGSENLREGYDWGQGTLVTVSS	no binding
7-40 (VHH) VHH: EVQLVESGGGLVQPGGSLRLSCAASGRTFRRYTMGWFRQAPGKEREFVASITKFGSTNYADSVKGRFTISADNSKNTAYLQMNSLKPEDTAVYYCAKEDVGKPFDWGQGTLVTVSS	no binding
7-45 (VHH) VHH: EVQLVESGGGLVQPGGSLRLSCAASGRTLSRYTMGWFRQAPGKEREFVASITSGGSTNYADSVKGRFTISADNSKNTAYLQMNSLKPEDTAVYYCAKEDVGKPFDWGQGTLVTVSS	no binding
3-28 (VHH, not shown: a dimerising Fc or GST) VHH: EVQLVESGGGLVQPGGSLRLSCAASGFTFRRYDMGWFRQAPGKEREFVSAISGGLAYYADSVKGRFTISADNSKNTAYLQMNSLKPEDTAVYYCAVDLSGDAVYDWGQGTLVTVSS	no binding
7-31 (VHH, not shown: a dimerising Fc or GST) VHH: EVQLVESGGGLVQPGGSLRLSCAASGFTFSNYSMGWFRQAPGKEREFVAAIHWNGDSTAYADSVKGRFTISADNSKNTAYLQMNSLKPEDTAVYYCAAQTEDSAQYIWGQGTLVTVSS	no binding

Now take the following binder into account.
[in] Recorded binding result of 7-17 (VHH, not shown: a dimerising Fc or GST) VHH: EVQLVESGGGLVQPGGSLRLSCAASGFSLDYYGMGWFRQAPGKEREFVAAITSGGTPHYADSVKGRFTISADNSKNTAYLQMNSLKPEDTAVYYCASAYNPGIGYDWGQGTLVTVSS , please.
[out] no binding

Reference source for all entries: patent US20230265217A1
